Target: human Retinoid X Receptor beta (RXRb), RXRB (gene 6257)
Experiment: ATG_hRXRb_EcoTox2: Attagene TRANS-FACTORIAL EcoTox-2 HepG2 Assay for human Retinoid X Receptor beta (RXRb)
Excerpt: ATG_EcoTox2 is a cell-based, multiplexed assay created by modifying the existing Attagene TRANS-FACTORIAL system to include a panel of nuclear receptors from some or all the following species: human (Homo sapiens), african clawed frog (Xenopus laevis), rainbow trout (Oncorhynchus mykiss), japanese medaka (Oryzias latipes), and zebrafish (Danio rerio). […] ATG_hRXRb_EcoTox2 is one of 29 assay components calculated in the ATG_EcoTox2 assay. […]
Results filed as inconclusive are left out. The source made the active and inactive calls. Rule for the calls: active = hit-call score of the fitted dose curve at least 0.9, where 1 is the maximum; inconclusive = response in the unintended direction; inactive = score below 0.9.
Possible outcomes: true (1) for active, false (0) for inactive

>  <compound>
C[C@@H]1C[C@H]2[C@@H]3CCC4=CC(=O)C=C[C@]4(C)[C@@]3(F)[C@@H](O)C[C@]2(C)[C@@]1(O)C(=O)COP(=O)(O)O

>  <qualitativeLabel>
false (0)

$$$$
>  <compound>
CC(C)OC(=O)C(C)(C)Oc1ccc(C(=O)c2ccc(Cl)cc2)cc1

>  <qualitativeLabel>
false (0)

$$$$
>  <compound>
Cc1ccc(C)c(OCCCC(C)(C)C(=O)O)c1

>  <qualitativeLabel>
true (1)

$$$$
>  <compound>
CC(C)(Oc1ccc(Cl)cc1)C(=O)O

>  <qualitativeLabel>
false (0)

$$$$
>  <compound>
CC(C)(Oc1ccc(C2CC2(Cl)Cl)cc1)C(=O)O (stereo unspecified)

>  <qualitativeLabel>
false (0)

$$$$
>  <compound>
CC(C)(Oc1ccc(CCNC(=O)c2ccc(Cl)cc2)cc1)C(=O)O

>  <qualitativeLabel>
false (0)

$$$$
